Source of measurements: the supplement of paper PMC6555819

# Test system: FXR:RXRa (NR concentration 270 nM, RXRa partner concentration 90 nM)
# test: PBM binding z-score (relative to random genomic background probes); higher = stronger binding; sequences stand for … in GC…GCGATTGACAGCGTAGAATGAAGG
Quick reference for PBM binding z-score among some sequences

In [3]: df
Out[3]:
                      sequence_string  meas_value
0  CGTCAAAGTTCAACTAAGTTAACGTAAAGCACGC        7.25

Entry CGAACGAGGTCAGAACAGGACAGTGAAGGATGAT : reported PBM binding z-score = ? 5.64

Would you mind telling me what PBM binding z-score value was observed for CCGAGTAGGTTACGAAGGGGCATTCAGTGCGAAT ? 0.672

# get_value(readout='PBM binding z-score', item= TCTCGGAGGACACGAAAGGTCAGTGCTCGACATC ) 2.42

---

# Tested on: PXR homodimer (NR concentration 270 nM)
# test: PBM binding z-score (relative to random genomic background probes); higher = stronger binding; sequences stand for … in GC…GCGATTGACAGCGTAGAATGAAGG
measured-property: PBM binding z-score
Would you mind answering with just the numeric figure?

In [3]: df
Out[3]:
                      sequence_string    measured_property  meas_value
0  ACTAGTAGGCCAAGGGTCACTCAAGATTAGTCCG  PBM binding z-score     -0.0548
1  CCGAGTAGGTTACGCGGGGGCATTCAGTGCGAAT  PBM binding z-score        7.61
2  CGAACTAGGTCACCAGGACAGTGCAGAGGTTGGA  PBM binding z-score        0.15

I have this sequence here, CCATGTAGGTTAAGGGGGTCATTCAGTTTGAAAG , and I need its recorded PBM binding z-score. 12.1

// lookup PBM binding z-score for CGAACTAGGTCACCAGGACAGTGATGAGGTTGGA 0.423

PBM binding z-score lookup needed for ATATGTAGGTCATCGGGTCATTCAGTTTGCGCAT , thanks. 8.57

Dear colleague, I am looking for the recorded PBM binding z-score of the following sequence: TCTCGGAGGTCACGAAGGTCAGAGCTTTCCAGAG 9.02

I have this sequence here, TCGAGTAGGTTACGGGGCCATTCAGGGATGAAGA , and I need its recorded PBM binding z-score. -0.128

For the sequence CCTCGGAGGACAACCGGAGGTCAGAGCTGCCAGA , what PBM binding z-score is on record? 0.578

// lookup PBM binding z-score for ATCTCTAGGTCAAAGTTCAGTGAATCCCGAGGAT 2.76

Which PBM binding z-score is reported for this sequence? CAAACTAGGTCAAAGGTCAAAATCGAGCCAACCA 1.48

Fill in the blank: the reported PBM binding z-score of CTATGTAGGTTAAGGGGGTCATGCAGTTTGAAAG is ____. 8.41

---

# Test system: VDR homodimer (NR concentration 270 nM)
# test: PBM binding z-score (relative to random genomic background probes); higher = stronger binding; sequences stand for … in GC…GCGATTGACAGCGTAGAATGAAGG
Recorded PBM binding z-score for the following sequences
No unit in the answer, please; the number alone is enough.

Use the examples below as a reference point.
>>> df
                      sequence_string  meas_value
0  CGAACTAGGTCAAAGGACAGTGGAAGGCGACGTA       0.241
1  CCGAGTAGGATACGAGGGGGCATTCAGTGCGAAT        2.57
2  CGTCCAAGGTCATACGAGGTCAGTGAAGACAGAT        5.82
3  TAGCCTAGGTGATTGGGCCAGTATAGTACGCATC       -0.67
4  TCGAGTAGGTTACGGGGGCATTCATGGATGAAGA        3.57

PBM binding z-score lookup needed for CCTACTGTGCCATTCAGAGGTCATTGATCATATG , thanks. 3.56

Sample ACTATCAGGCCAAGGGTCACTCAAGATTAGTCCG — what was its PBM binding z-score? 1.45
